Test: logP by HPLC on reversed-phase column (EEC Directive 79/831 Annex V.A8)
Format: physicochemical
Conditions: HPLC on reversed-phase column (C 18), 40° C., 0.1% aqueous formic acid and acetonitrile, linear gradient 10% to 90% acetonitrile
Measured Parameter: logP
// no unit, no text: just the number

Field logP (entry CC(c1csc2ccccc12)N(C(=O)c1c(C(F)F)nn(C)c1F)C1CC1 (racemic) ) reads 3.60

// logP value for CN(Cc1ccc2nsnc2c1)C(=O)c1c(C(F)F)nn(C)c1Cl : 2.32

Input Cc1nc(C(F)(F)F)c(CN(C(=O)c2c(C(F)F)nn(C)c2F)C2CC2)s1 . Output logP: 2.75

GET /value?item= Cn1nc(C(F)F)c(C(=O)NCc2csc3ccccc23)c1F &field=logP returns 2.73

compound Cc1ccsc1CN(C(=O)c1c(C(F)F)nn(C)c1F)C1CC1 , logP observed: 2.88

CC(c1cccc2ccsc12)N(C(=O)c1c(C(F)F)nn(C)c1Cl)C1CC1 (stereo not shown) yielded logP of 3.61

The reported value for Cn1nc(C(F)F)c(C(=O)N(Cc2ccc(Cl)nc2)C2CC2)c1F in terms of logP is 2.25

Consider Cc1cc(C(C)N(C(=O)c2c(C(F)F)nn(C)c2F)C2CC2)c(C)s1 (stereo not shown) . Its measured logP is 3.62

Item: Cc1cc(C(C)N(C(=O)c2c(C(F)F)nn(C)c2Cl)C2CC2)c(C)s1 (stereo not shown) | logP: 3.79

For this compound ( CN(Cc1ccco1)C(=O)c1c(C(F)F)nn(C)c1Cl ), measured logP is 2.02

The compound listed as Cn1ccc(C2(NC(=O)c3c(C(F)F)nn(C)c3Cl)CCCC2)n1 shows logP equal to 1.93

Sure, the documented logP for Cn1nc(C(F)F)c(C(=O)N(Cc2ccco2)C2CC2)c1F is 2.32

// field: logP; key: CCN(Cc1nonc1C)C(=O)c1c(C(F)F)nn(C)c1Cl ; value = 2.20

Kindly note the recorded logP for CC(c1cc2ccccc2s1)N(C(=O)c1c(C(F)F)nn(C)c1F)C1CC1 (racemic) , which is 3.69

Data point: Cc1ccsc1CN(C)C(=O)c1c(C(F)F)nn(C)c1Cl ; logP = 2.58

Record summary for CN(Cc1nc(-c2ccccc2)no1)C(=O)c1c(C(F)F)nn(C)c1Cl : reported logP = 2.71

Field logP (entry Cn1nc(C(F)F)c(C(=O)N(Cc2nc3ccccc3s2)C2CC2)c1F ) reads 2.68

logP recorded for this compound, Cn1nc(C(F)F)c(C(=O)N(Cc2ccc(Cl)nc2)C2CCCC2)c1F , is 2.80

get_value(item= CCN(Cc1cnc(Cl)s1)C(=O)c1c(C(F)F)nn(C)c1Cl , readout=logP) returns 2.35
